Quick reference: relative fusion index (FI) of the listed items.
Test system: C2C12 cells
Assay: Evaluation of myogenesis of C2C12 cells by fusion index
Type: cell-based, mouse
Settings: Group 5; 1 μM; differentiation condition 72 hours; DMSO as 1; average of three

{"compound": "Cc1cc(C)c(-n2cnc(N)c2C(=O)c2ccccc2)c(C)c1 [exemplary compound 44]", "relative fusion index (FI)": 1.11}
{"compound": "CC(=O)c1c(N)ncn1-c1ccccc1C [exemplary compound 41]", "relative fusion index (FI)": 1.14}
{"compound": "Cc1ccc(-n2cnc(N)c2C(=O)c2ccccc2)c(C)c1 [exemplary compound 43]", "relative fusion index (FI)": 1.07}

Consider now this further compound.
For C2C12 cells, provide relative fusion index (FI) of Nc1ncn(-c2ccccn2)c1C(=O)c1ccccc1 [exemplary compound 38] please. 1.08
